- assayOverview: NCI Yeast Anticancer Drug Screen. Data for the rad50 strain (AID 155);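 note: 0% = growth of vehicle-only cultures of the same strain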
- assaySetup: S. cerevisiae rad50 strain growth inhibition; at 50.0 µM; active compounds read high
This is part of a sample that, as a whole, favours compounds with a hit. Of some 79,000 tested, about 15% had one in any assay.
# growth inhibition per record follows
// note: answer is a bare numeric in %

>>> df
         compound   quantitymeasured  observedvalue
0  C[N+](C)(C)CBr  growth inhibition           36.8

Complete the entry with growth inhibition for O=C(Nc1ccc(NC(=O)OCc2ccccc2)c(Cl)c1)OCc1ccccc1
20.4

Complete the entry with growth inhibition for OC(CNc1ccc(Cl)nn1)c1ccccc1 (configuration not stated)
-3.35

Complete the entry with growth inhibition for COc1ccc(C(O)C(O)(c2ccccc2)c2ccc(OC)cc2)cc1 (configuration not stated)
-6.05

Complete the entry with growth inhibition for COc1cc2c(oc(=O)c3cc4cc([Si](C)(C)C)oc4c(OC)c32)c2cccc(O)c12
-0.5

Complete the entry with growth inhibition for COCCCNC1=C(C#N)C(=O)NC(c2cccs2)S1 (configuration not stated)
2

Complete the entry with growth inhibition for CCOC(CCCl)c1ccccc1 (configuration not stated)
2.45
